Value source: patent US4571396A

Where a name gives a salt, the structure may show the parent alone.
Lab note: MIC readings collected with Staphylococcus aureus H 228 for the following molecules.
Kindly answer with a numeric value in µg/mL, unit omitted.

Example results:
{"molecule": "CN1CC2CC1CN2c1nc2c(cc1F)c(=O)c(C(=O)O)cn2C1CC1 (stereo not drawn) [Ex. 10b, monohydrochloride]", "MIC / µg/mL": 0.4}
{"molecule": "O=C(O)c1cn(C2CC2)c2c(F)c(N3CCN4CCC3C4)c(F)cc2c1=O (stereo not drawn)", "MIC / µg/mL": 0.4}

input: Recorded MIC of Cl.O=C(O)c1cn(C2CC2)c2nc(N3CC4CC3CN4)c(F)cc2c1=O (stereo not drawn) , please.
output: 0.8

---

system: Staphylococcus aureus UC-76; assay: In vitro antibacterial activity, microtitration dilution method (MIC); assay type: cell-based; conditions: UC76; Staphylococcus aureus UC-76; in vitro; read-out: Minimal Inhibitory Concentration MIC
Where a name gives a salt, the structure may show the parent alone.
Entries annotated with measured MIC
Kindly answer with a numeric value in µg/mL, unit omitted.

input: Look up MIC with Staphylococcus aureus UC-76 for this compound: CCn1cc(C(=O)O)c(=O)c2cc(F)c(N3CC4CCC3CN4C)nc21.Cl (centres unmarked) [Ex. 10a]
output: 0.2

input: Okay, and O=C(O)c1cn(C2CC2)c2c(F)c(N3CC4CC3CN4)c(F)cc2c1=O (centres unmarked) ?
output: 0.2

input: Okay, and CCn1cc(C(=O)O)c(=O)c2cc(F)c(N3CCN4CCC3C4)c(F)c21 (centres unmarked) ?
output: 0.1

input: Okay, and CN1CC2CC1CN2c1nc2c(cc1F)c(=O)c(C(=O)O)cn2C1CC1 (centres unmarked) [Ex. 10b, monohydrochloride] ?
output: 0.1

input: Okay, and CN1CC2CC1CN2c1c(F)cc2c(=O)c(C(=O)O)cn(C3CC3)c2c1F.Cl (centres unmarked) [Ex. 10c] ?
output: 0.025

input: Okay, and O=C(O)c1cn(C2CC2)c2c(F)c(N3CCN4CCC3C4)c(F)cc2c1=O (centres unmarked) ?
output: 0.025

input: Okay, and O=C(O)c1cn(C2CC2)c2c(F)c(N3CC4CCC3CN4)c(F)cc2c1=O (centres unmarked) ?
output: 0.025

input: Okay, and Cl.O=C(O)c1cn(C2CC2)c2nc(N3CC4CC3CN4)c(F)cc2c1=O (centres unmarked) ?
output: 0.2

input: Okay, and O=C(O)c1cn(C2CC2)c2nc(N3CC4CCC3CN4)c(F)cc2c1=O (centres unmarked) ?
output: 0.006

input: Okay, and O=C(O)c1cn(C2CC2)c2nc(N3CCN4CCC3C4)c(F)cc2c1=O (centres unmarked) ?
output: 0.1

---

Test system: Streptococcus pneumoniae SV-1
Experiment: In vitro antibacterial activity, microtitration dilution method (MIC)
Format: cell-based
Details: SV1; Streptococcus pneumoniae SV-1; in vitro; read-out: Minimal Inhibitory Concentration MIC
From the text: Agents & Chemoth., 6, 124 (1974), which is incorporated herein by reference.
Counter-ions that a name gives are not always drawn.
valueKind: MIC (mg/L)
Kindly answer with a numeric value in mg/L, unit omitted.

{"molecule": "CCn1cc(C(=O)O)c(=O)c2cc(F)c(N3CCN4CCC3C4)c(F)c21 (centres unmarked)", "observedValue": 0.8}
{"molecule": "CCn1cc(C(=O)O)c(=O)c2cc(F)c(N3[C@@H]4CC[C@H]3C[C@H](N)C4)nc21 [Ex. 20, hydrochloride]", "observedValue": 0.4}
{"molecule": "O=C(O)c1cn(C2CC2)c2c(F)c(N3CC4CC3CN4)c(F)cc2c1=O (centres unmarked)", "observedValue": 1.6}
{"molecule": "CN1CC2CC1CN2c1c(F)cc2c(=O)c(C(=O)O)cn(C3CC3)c2c1F.Cl (centres unmarked) [Ex. 10c]", "observedValue": 0.4}

input: Recorded MIC of O=C(O)c1cn(C2CC2)c2c(F)c(N3CCN4CCC3C4)c(F)cc2c1=O (centres unmarked) , please.
output: 0.4

input: Okay, and O=C(O)c1cn(C2CC2)c2nc(N3CCN4CCC3C4)c(F)cc2c1=O (centres unmarked) ?
output: 0.8

input: Okay, and Cl.O=C(O)c1cn(C2CC2)c2nc(N3CC4CC3CN4)c(F)cc2c1=O (centres unmarked) ?
output: 0.8

input: Okay, and O=C(O)c1cn(C2CC2)c2nc(N3CC4CCC3CN4)c(F)cc2c1=O (centres unmarked) ?
output: 0.4

---

system: Streptococcus pneumoniae SV-1; experiment: In vitro antibacterial activity, microtitration dilution method (MIC); format: cell-based; conditions: SV1; Streptococcus pneumoniae SV-1; in vitro; read-out: Minimal Inhibitory Concentration MIC
Structures can show the parent of a compound that is named as a salt.
valueKind: MIC (µg/mL)
Kindly answer with a numeric value in µg/mL, unit omitted.

Example results:
{"molecule": "CCn1cc(C(=O)O)c(=O)c2cc(F)c(N3CC4CCC3CN4C)nc21.Cl (stereo not drawn) [Ex. 10a]", "MIC (µg/mL)": 1.6}
{"molecule": "CCn1cc(C(=O)O)c(=O)c2cc(F)c(N3CC4CCC3CN4)c(F)c21 (stereo not drawn) [Ex. 2]", "MIC (µg/mL)": 0.8}

Next molecule, MIC to be filled in.
input: Recorded MIC of CN1CC2CC1CN2c1nc2c(cc1F)c(=O)c(C(=O)O)cn2C1CC1 (stereo not drawn) [Ex. 10b, monohydrochloride] , please.
output: 0.4
